Ref: PubChem BioAssay (NCI)

- System: UACC-62 melanoma
- MEASUREMENT_NOTES: NCI-60 one-dose screen, 48 h (100 = growth as untreated, 0 = no growth, -100 = all killed)
- STUDY_CONDITIONS: 10 µM unless noted
- Procedure: Growth inhibition of the UACC-62 human tumor cell line is measured as a screen for anti-cancer activity. Cells are grown in 96 well plates and exposed to the test compound for 48 hours. Compounds are tested at a single concentration, which is 10^-5 M for most compounds. The reported endpoint is percent growth (GI% or GIPRCNT), where numbers from 0 - 100% represent growth inhibition, and numbers from -100% - 0 represent cell death. For example, a value of 40 represents 60% growth inhibition. […]
About 83,000 compounds went through this panel and 20% of them were active in at least one assay; those are over-represented in the sample as a whole. The source made the active and inactive calls. How the source made its calls: active means growth percent below 10; inactive means the rest.
REPORTED_METRIC: growth

The cases that follow already have their growth on record.
>>> result("Fc1ccc(C2CC(c3cccc(Nc4ccncc4)c3)=NN2c2ccccc2)cc1 (centres undefined)")
"88.8% (inactive)"
>>> result("c1ccc(-c2nnc(Nc3ccc4c(c3)OCCO4)o2)c(NCc2ccncc2)c1")
"20.7% (inactive)"
>>> result("C[C@@H]1CN(Cc2ccc(/C=C/c3n[nH]c4ccc5nc(-c6cn[nH]c6C(F)(F)F)c6c(c5c34)CCCC6)cc2)C[C@H](C)O1")
"44.3% (inactive)"
>>> result("O=C1/C(=C\\c2cn(Cc3ccccc3)c3ccc(Br)cc23)c2ccccc2N1c1c(Cl)cccc1Cl")
"98.4% (inactive)"
>>> result("NC(=O)c1ccc[n+](CC(=O)N2CCN(c3cc4c(cc3F)c(=O)c(C(=O)O)cn4C3CC3)CC2)c1")
"59.2% (inactive)"

# lookup: growth of Fc1ccc(C2CC(c3cccc(Nc4ccncc4)c3)=NN2c2ccc(Cl)cc2)cc1 (centres undefined)
99.6% (inactive)

# lookup: growth of NC(=O)c1ncn(C2OC(CO)C(O)C2O)n1 (centres undefined)
104% (inactive)

# lookup: growth of "COc1ccccc1-c1c(-c2ccc(Cl)cc2)c2cc3c(cc2[nH]c1=O)OCCO3"
71% (inactive)

# lookup: growth of "N#C/C(=C\c1ccc(Br)cc1)n1nnc2cccc(F)c21"
22.7% (inactive)

====

- Test system: SK-MEL-5 melanoma
- MEASUREMENT_NOTES: NCI-60 one-dose screen, 48 h
- STUDY_CONDITIONS: 10 µM unless noted
About 83,000 compounds went through this panel and 20% of them were active in at least one assay; those are over-represented in the sample as a whole. Activity calls are given as the source filed them. How the source made its calls: active means growth percent below 10; inactive means the rest.
Select the matching outcome among YES for active, NO for inactive

Reference set, count: 8
>>> class_name("Clc1cc(Cl)cc(N2N=C(c3cccc(Nc4ccncc4)c3)CC2c2ccc(Br)cc2)c1 (centres undefined)")
"NO"
>>> class_name("Cc1cc(C(=O)Nc2ncnc3nc[nH]c23)no1")
"NO"
>>> class_name("COc1ccc(CC(C)=C(c2ccc(OCCN(C)C)cc2)c2ccc(OCCN(C)C)cc2)cc1")
"NO"
>>> class_name("COc1cccc(CCC(=O)c2cc3c(N)c(C(=O)Nc4cccc(Cl)c4C)sc3nc2C)c1")
"YES"
>>> class_name("c1cnc2nc3c(cc2c1)oc1ccccc13")
"NO"
>>> class_name("COc1ccc(Cn2nc(-c3cc(OC)c(OC)c(OC)c3)c3c2CCc2cnoc2-3)cc1OC")
"NO"
>>> class_name("C=C1C(=O)O[C@H]2[C@H]1CC/C(CNC(=O)/C=C/c1ccc(Br)cc1)=C\\CC[C@@]1(C)O[C@@H]21")
"NO"
>>> class_name("C[C@H]1[C@H](C)CC[C@]2(CO)CC[C@]3(C)C(=CC[C@@H]4[C@@]5(C)CCCNC(C)(C)[C@@H]5CC[C@]43C)[C@H]12")
"NO"

Which outcome was entered for the molecule "COc1cc2ncnc(Nc3ccc(C(=O)/C=C/c4ccc(C(F)(F)F)cc4F)cc3)c2cc1OC" in this test?
NO

====

- System: M14 melanoma
- MEASUREMENT_NOTES: NCI-60 one-dose screen, 48 h (100 = growth as untreated, 0 = no growth, -100 = all killed)
- STUDY_CONDITIONS: 10 µM unless noted
- Method: Growth inhibition of the M14 human tumor cell line is measured as a screen for anti-cancer activity. Cells are grown in 96 well plates and exposed to the test compound for 48 hours. Compounds are tested at a single concentration, which is 10^-5 M for most compounds. The reported endpoint is percent growth (GI% or GIPRCNT), where numbers from 0 - 100% represent growth inhibition, and numbers from -100% - 0 represent cell death. For example, a value of 40 represents 60% growth inhibition. […]
Compounds without any hit were thinned out: in the full panel of roughly 83,000, 20% have a hit.
Known growth of a selection of compounds
Your answer should be a plain number; it is taken to be in %.

Lab note: need growth with M14 melanoma for entry "CCOC(=O)c1c(O)cc(-c2ccccc2)cc1-c1sc(N(C)Cc2ccccc2)nc1Cl" , please look it up.
-85

Lab note: need growth with M14 melanoma for entry Clc1cc(Cl)cc(N2N=C(c3cccc(Nc4ccncc4)c3)CC2c2ccc3c(c2)OCO3)c1 (stereo not given) , please look it up.
85.3

Lab note: need growth with M14 melanoma for entry Clc1ccc(N2N=C(c3cccc(Nc4ccncc4)c3)CC2c2ccc3c(c2)OCO3)cc1 (stereo not given) , please look it up.
-52.4

Lab note: need growth with M14 melanoma for entry CCN1C(=O)N(CC)C2NC(SC)=NC21 (stereo not given) , please look it up.
100

Lab note: need growth with M14 melanoma for entry "COc1c(Cl)cc(Cl)c2ccc(C=C3C(=O)N(C)C(=O)N(C)C3=O)nc12" , please look it up.
-15.7

====

- System: HS 578T breast
- MEASUREMENT_NOTES: NCI-60 one-dose screen, 48 h (100 = growth as untreated, 0 = no growth, -100 = all killed)
- STUDY_CONDITIONS: 10 µM unless noted
The panel holds about 83,000 compounds, 20% with a hit somewhere; the sample as a whole holds those more often.
Quick rule for you: growth under 90% gets MET, anything else gets NOT MET.

>>> class_name("O=S(=O)(NCCCNc1nccc(-c2c(-c3ccc(F)c(O)c3)nc3sccn23)n1)c1ccc(F)cc1")
"MET"
>>> class_name("N/C(=N\\N=C\\c1cc2ccccc2s1)N/N=C/c1cc2ccccc2s1")
"NOT MET"
>>> class_name("CCCCOc1ccc(/C=N/Nc2cc(C)nc3ccc(Cl)cc23)cc1")
"MET"

Bench note: check whether "COc1ccc(/C(=C\c2ccccc2)C(=O)O)cc1OC" shows growth below 90%
NOT MET

Bench note: check whether "COc1cc(C(=O)/C=C/c2c(C)n([O-])c3ccc(Cl)cc3[n+]2=O)cc(OC)c1OC" shows growth below 90%
MET

====

- Tested on: TK-10 renal
- MEASUREMENT_NOTES: NCI-60 one-dose screen, 48 h
- STUDY_CONDITIONS: 10 µM unless noted
- Method: Growth inhibition of the TK-10 human tumor cell line is measured as a screen for anti-cancer activity. Cells are grown in 96 well plates and exposed to the test compound for 48 hours. Compounds are tested at a single concentration, which is 10^-5 M for most compounds. The reported endpoint is percent growth (GI% or GIPRCNT), where numbers from 0 - 100% represent growth inhibition, and numbers from -100% - 0 represent cell death. For example, a value of 40 represents 60% growth inhibition. […]
Compounds without any hit were thinned out: in the full panel of roughly 83,000, 20% have a hit. Activity calls are given as the source filed them. The calls were made as follows: active = growth percent below 10; inactive = the rest.
Select the matching outcome among active, inactive

Reference set, count: 10
>>> class_name("O=C1Nc2c(ccc(Cl)c2Cl)/C1=C/c1ccc(F)cc1")
"inactive"
>>> class_name("COc1ccc(C(=O)c2cc3c(N)c(C(=O)Nc4cccc(Cl)c4)sc3nc2C)cc1")
"inactive"
>>> class_name("Nc1nc(N)nc(NCc2ccccc2)n1")
"inactive"
>>> class_name("COc1ccc(C2CC(n3nnnc3-c3ccccc3)=NN2)cc1 (stereo unspecified)")
"inactive"
>>> class_name("C(=N\\Nc1ncc(-c2cc3cc4c(cc3o2)OCO4)s1)/c1c[nH]c2ccccc12")
"inactive"
>>> class_name("COc1ccc(/C=C(/c2ccccc2)[N+](=O)[O-])cc1")
"active"
>>> class_name("N#Cc1ccc(-c2ccc3c(c2)NC(=O)/C3=C\\c2ccc[nH]2)cc1")
"inactive"
>>> class_name("COc1ccc2nc(N=Nc3c(O)ccc4ccccc34)sc2c1")
"inactive"
>>> class_name("CCCNC(=O)Oc1ccc(/C(=C(\\C)c2ccccc2)c2ccc(OCCN3CCCCC3)cc2)cc1")
"inactive"
>>> class_name("COc1ccc(-c2c[nH]c(C(=O)O)c2-c2cc(OC)c3c(c2OC)OCO3)cc1")
"inactive"

Next item in the queue.
Which outcome was entered for the molecule "Cc1cc2cc3cc(C)c(N)cc3[n+](C)c2cc1N" in this test?
inactive
